assay notes: Solubility of the compound in FeSSIF
Assay type: physicochemical

{"columns": ["molecule", "solubility [µg/mL]"],
 "data": [
  ["CC(C)C[C@](C)(N)COc1ccc(-c2ccnc(C(F)F)c2)nc1C(F)F [PILAVAPADIN]", 840]
]}

---

test target: Cytochrome P450 2D6 (Homo sapiens)
Sequence (P10635 whole entry): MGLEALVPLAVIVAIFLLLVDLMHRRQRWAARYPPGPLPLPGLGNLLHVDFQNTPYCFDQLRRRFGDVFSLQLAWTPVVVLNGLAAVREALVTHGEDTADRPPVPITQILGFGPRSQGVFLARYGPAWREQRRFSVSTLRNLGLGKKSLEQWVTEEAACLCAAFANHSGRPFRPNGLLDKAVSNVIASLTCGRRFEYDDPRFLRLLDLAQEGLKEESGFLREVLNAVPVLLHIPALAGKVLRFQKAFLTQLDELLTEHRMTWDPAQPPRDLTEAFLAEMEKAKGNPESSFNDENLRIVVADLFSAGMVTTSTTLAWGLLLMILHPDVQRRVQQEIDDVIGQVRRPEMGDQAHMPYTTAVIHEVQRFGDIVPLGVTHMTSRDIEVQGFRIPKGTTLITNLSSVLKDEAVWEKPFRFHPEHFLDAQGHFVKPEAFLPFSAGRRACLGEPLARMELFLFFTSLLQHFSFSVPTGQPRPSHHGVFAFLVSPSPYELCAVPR
pIC50: −log10 of the molar value.
test readout: pIC50

{"columns": ["chem smiles", "test target", "readout value"],
 "data": [
  ["CC(C)C[C@](C)(N)COc1ccc(-c2ccnc(C(F)F)c2)nc1C(F)F", "Cytochrome P450 2D6 (Homo sapiens)", "< 4.70"]
]}

---

test target: Cytochrome P450 (Homo sapiens, UniProt P04798+P05177+P05181+P08684+P10632+P10635+P11509+P11712+P13584+P20813+P20815+P20853+P24462+P24903+P33260+P33261+P51589+P78329+P98187+Q02928+Q08477+Q16678+Q16696+Q5TCH4+Q6VVX0+Q7Z449+Q8TAV3+Q96SQ9+Q9HB55)
assay notes: Metabolic stability in human liver microsomes assessed as CYP450-mediated metabolism by measuring parent compound remaining at 0.5 uM incubated for 10 mins in presence of NADPH by LC-MS/MS analysis
Assay type: ADME
conditions: read-out: Stability
# remaining at 10 min, 0.5 µM listing for each entry below
test readout: remaining at 10 min, 0.5 µM (%)

{"columns": ["chem smiles", "test readout", "unit label", "readout value"],
 "data": [
  ["CC(C)C[C@](C)(N)COc1ccc(-c2ccnc(C(F)F)c2)nc1C(F)F", "remaining at 10 min, 0.5 µM", "%", 87],
  ["CC(C)C[C@](C)(N)COc1ccc(-c2ccnc(Cl)c2)nc1C(F)F", "remaining at 10 min, 0.5 µM", "%", 97],
  ["Cc1cc(-c2ccc(OC[C@@](C)(N)CC(C)C)c(C(F)(F)F)c2)ccn1", "remaining at 10 min, 0.5 µM", "%", 89],
  ["CC(C)C[C@](C)(N)COc1ccc(-c2ccnc(C(F)F)c2)cc1C#N", "remaining at 10 min, 0.5 µM", "%", 85],
  ["Cc1cc(-c2ccc(OC[C@@](C)(N)CC(C)C)c(C)n2)ccn1", "remaining at 10 min, 0.5 µM", "%", 95]
]}

---

assay notes: AUC (infinity) in mouse at 2 mg/kg, iv
Assay type: ADME, organism-based
Design: time infinity, route intravenous, dose 2 mg/kg
conditions: in vivo
test readout: AUC(0-inf) (ng·h/mL)

{"columns": ["compound", "readout value"],
 "data": [
  ["CC(C)C[C@](C)(N)COc1ccc(-c2ccnc(C(F)F)c2)nc1C(F)F [PILAVAPADIN]", 6710]
]}

---

test target: Voltage-gated inwardly rectifying potassium channel KCNH2 (Homo sapiens, UniProt Q12809)
Sequence (Q12809 whole entry): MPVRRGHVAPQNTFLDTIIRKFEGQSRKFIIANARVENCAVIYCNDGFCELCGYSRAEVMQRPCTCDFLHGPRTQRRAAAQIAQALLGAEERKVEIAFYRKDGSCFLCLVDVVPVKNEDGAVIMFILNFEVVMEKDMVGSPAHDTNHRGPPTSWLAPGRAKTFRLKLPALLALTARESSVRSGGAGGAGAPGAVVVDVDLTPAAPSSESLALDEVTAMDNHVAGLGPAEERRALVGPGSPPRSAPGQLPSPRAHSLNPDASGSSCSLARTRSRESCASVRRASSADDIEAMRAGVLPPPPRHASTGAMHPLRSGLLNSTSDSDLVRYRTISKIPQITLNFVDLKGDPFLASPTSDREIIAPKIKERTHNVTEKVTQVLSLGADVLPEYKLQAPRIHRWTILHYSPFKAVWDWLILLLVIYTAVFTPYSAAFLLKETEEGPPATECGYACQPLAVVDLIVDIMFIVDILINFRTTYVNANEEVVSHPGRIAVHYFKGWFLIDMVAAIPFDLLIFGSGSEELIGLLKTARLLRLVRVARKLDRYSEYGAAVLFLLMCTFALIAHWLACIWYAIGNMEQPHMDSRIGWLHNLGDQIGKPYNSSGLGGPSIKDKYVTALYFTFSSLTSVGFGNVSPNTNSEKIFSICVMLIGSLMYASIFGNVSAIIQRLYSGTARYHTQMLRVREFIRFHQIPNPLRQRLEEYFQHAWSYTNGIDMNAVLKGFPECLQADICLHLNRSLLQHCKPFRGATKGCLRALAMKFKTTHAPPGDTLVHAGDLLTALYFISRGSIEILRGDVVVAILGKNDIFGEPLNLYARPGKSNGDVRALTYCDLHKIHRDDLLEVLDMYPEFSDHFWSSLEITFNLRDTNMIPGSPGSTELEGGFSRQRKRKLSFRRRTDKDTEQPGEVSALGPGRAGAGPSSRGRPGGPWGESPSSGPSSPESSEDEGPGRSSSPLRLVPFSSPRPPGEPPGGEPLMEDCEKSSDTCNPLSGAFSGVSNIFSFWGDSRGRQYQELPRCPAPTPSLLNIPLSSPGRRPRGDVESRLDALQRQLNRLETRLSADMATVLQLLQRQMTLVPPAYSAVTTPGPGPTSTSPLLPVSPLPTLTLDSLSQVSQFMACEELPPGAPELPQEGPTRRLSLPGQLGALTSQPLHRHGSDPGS
assay notes: Inhibition of human ERG by patch clamp assay
test readout: IC50 (µM)

{"columns": ["compound", "test readout", "readout value"],
 "data": [
  ["CC(C)C[C@](C)(N)COc1ccc(-c2ccnc(C(F)F)c2)nc1C(F)F [PILAVAPADIN]", "IC50", 1.4]
]}

---

assay notes: Metabolic stability in mouse liver microsomes assessed as CYP450-mediated metabolism by measuring parent compound remaining at 0.5 uM incubated for 10 mins in presence of NADPH by LC-MS/MS analysis
Assay type: ADME
conditions: read-out: Stability
Criterion met if remaining at 10 min, 0.5 µM is below 80%. Criterion not met if not; exact matches included in Criterion not met.

{"columns": ["compound", "assigned class"],
 "data": [
  ["CC(C)C[C@](C)(N)COc1ccc(-c2ccnc(Cl)c2)nc1C(F)F", "Criterion not met"],
  ["Cc1cc(-c2ccc(OC[C@@](C)(N)CC(C)C)c(C(F)(F)F)c2)ccn1", "Criterion met"],
  ["CC(C)C[C@](C)(N)COc1ccc(-c2ccnc(C(F)F)c2)nc1C(F)F [PILAVAPADIN]", "Criterion not met"],
  ["Cc1cc(-c2cnc(OC[C@@](C)(N)CC(C)C)c(C(F)F)c2)ccn1", "Criterion met"],
  ["CC(C)C[C@](C)(N)COc1ncc(-c2ccnc(Cl)c2)cc1C(F)F", "Criterion met"],
  ["CC(C)C[C@](C)(N)COc1ccc(-c2ccnc(C(F)F)c2)cc1C#N", "Criterion not met"],
  ["Cc1cc(-c2ccc(OC[C@@](C)(N)CC(C)C)c(C(F)F)n2)ccn1", "Criterion met"],
  ["Cc1cc(-c2ccc(OC[C@@](C)(N)CC(C)C)c(C(F)F)c2)ccn1", "Criterion met"],
  ["CC(C)C[C@](C)(N)COc1ccc(-c2ccnc(C(F)F)c2)cc1C(F)(F)F", "Criterion not met"]
]}

Hey, just so you know, these numbers are from ChEMBL document CHEMBL5046296.
